# Test system: Rattus norvegicus
# TEST_SUMMARY: Antidiabetic activity in Rattus norvegicus albino (rat) assessed as inhibition in rise of blood glucose level at 20 mg/kg, po administered 30 min prior to glucose challenge measured post 60 min of challenge by oral glucose tolerance test relative to control
# Format: functional
READOUT: inhibition in vivo at 20 mg/kg (%)

compound=Cc1ccc(C2=NN(c3ccc(S(=O)(=O)NC(=O)NCc4ccccc4)cc3)C(=O)CC2)c(C)c1 quantity_unit=% quantitative_result=6.5
compound=COc1ccc(C2=NN(c3ccc(S(=O)(=O)NC(=O)NCc4ccccc4)cc3)C(=O)CC2)cc1 quantity_unit=% quantitative_result=41.4
compound=CCc1ccc(C2=NN(c3ccc(S(=O)(=O)NC(=O)NCc4ccccc4)cc3)C(=O)CC2)cc1 quantity_unit=% quantitative_result=86.9
compound="Cc1ccc(S(=O)(=O)NC(=O)NN2CC3CCCC3C2)cc1 (centres undefined) [GLICLAZIDE]" quantity_unit=% quantitative_result=61.4
